# reported composite z-score; entries follow
assay-comment: small-molecule microarray binders of probe aCHRDL2, primary screen, biochemical, biotinylated probe, 635/667 nm fluorescence (AID 1100)
condition-notes: higher = more signal
Lab note: record just the number, no unit beside it.

CCN1C(=O)[C@H]2[C@H]3[C@H](O)C=CC(=O)[C@@H]3CC[C@H]2C1=O : -0.484
COC(=O)[C@H](C)NC(=O)CCC1CC(OC(=O)NCCc2ccc(F)cc2)CC2(CCCC(COC(=O)NCC(c3ccccc3)c3ccccc3)O2)O1 (stereo not given in full) : -0.498
COCC(=C=CC[C@@H](O)c1ccccc1OCCO)CCO : 0.09
CO[C@@H]1COC(=O)CC=C[C@@H](C)[C@H](OC)COC(=O)[C@H](COCc2ccccc2)NC(=O)CC=C[C@H]1C : -1.15
CO[C@H]([C@@H](C)[C@H](OC)c1ccccc1)[C@H](C)[C@@H](OC)[C@H](C)C(C)=O : -0.117

composite z-score measured on COC(=O)CC=C[C@@H](C)[C@@H](C=NO[C@H](C)c1cn([C@@H]2COC[C@H]2O)nn1)OC = -0.611

composite z-score measured on O=C(CS)NCCCCCNC(=O)[C@H]1C[C@H]2C(=O)N3CCC[C@H]3C(=O)N2[C@H]1c1cccc(OCCO)c1 = 0.367

composite z-score measured on Cc1ccc(S[C@]2(C(=O)NCC(F)(F)F)CC(=O)N(Cc3ccccc3Cl)[C@@H]2c2ccc(CO)cc2I)cc1 = 0.828

composite z-score measured on COCCOC(=O)N1C(=O)[C@@]2(c3cc(C#CCNC(N)=O)ccc31)[C@H](c1ccccc1OCCO)N1[C@H](c3ccccc3)[C@H](c3ccccc3)OC(=O)[C@H]1[C@@H]2C(=O)N1CCN(c2ncccn2)CC1 = 0.702

composite z-score measured on CCN1C(=O)[C@H]2[C@H]3[C@H](O)[C@H](O)CC(=NOC(C)CN4CCCCc5nc(C)c(C)cc54)[C@@H]3CC[C@H]2C1=O (stereo not given in full) = -0.667

composite z-score measured on C[C@@H]1C=CCC(=O)OC[C@H](C)C(=O)N[C@@H](C)C(=O)OC1 = -0.791

composite z-score measured on O=C1[C@H]2[C@H]3[C@H](O)[C@H](O)CC(=NO[C@@H]4O[C@H](CO)[C@@H](O)[C@H](O)[C@H]4O)[C@@H]3CC[C@H]2C(=O)N1Cc1ccccc1 = -0.269

composite z-score measured on C[C@@H]1CCC2C(=O)N(Cc3ccccc3)C[C@@H](O)CN2[C@H]1c1ccc(Br)cc1 (stereo not given in full) = -0.441

composite z-score measured on CC(C)CN1CCc2nc(-c3ccccc3)c3c(c2CC1)CO[C@@H](C)C3 = -0.469

composite z-score measured on CCOC(=O)NN=C1C[C@@H](O)[C@@H](O)[C@@H]2[C@@H]3C(=O)N(C4CCCCC4)C(=O)[C@@H]3CC[C@@H]12 = -0.499

---

assay-comment: binders from COS7 lysate, DM2A8 probe, primary screen, torsin A project, cell lysate, small-molecule microarray, fluorescence 635/667 (AID 1065)
condition-notes: higher = more signal, COS7 lysate expressing mutant human TOR1A
test-readout: composite z-score

Worked examples follow.
C[C@H]1CC[C@@H](C(=O)O)N[C@@H]1c1ccc(C#CCN(C)C)cc1 : 0.451
COc1ccc(COC(=O)NN=C2C[C@@H](O)[C@@H](O)[C@@H]3[C@@H]4C(=O)N(c5ccc(F)cc5F)C(=O)[C@@H]4CC[C@@H]23)cc1 : 0.515
C=C(COC)/C(=C/C[C@H](OC(=O)c1ccncc1)c1ccc(CO)o1)c1cc(C(=O)OC)ccc1OC : 0.649

composite z-score measured on COCCCNC(=O)[C@@]1(Sc2ccc(C)cc2)CC(=O)N(Cc2ccccc2)[C@@H]1c1ccc(CO)cc1I = 0.258

---

# reported composite z-score; entries follow
tested-target: Dihydroorotate dehydrogenase (quinone), mitochondrial (Plasmodium falciparum (isolate 3D7)) (UniProt Q08210)
Sequence (Q08210 whole entry, looked up): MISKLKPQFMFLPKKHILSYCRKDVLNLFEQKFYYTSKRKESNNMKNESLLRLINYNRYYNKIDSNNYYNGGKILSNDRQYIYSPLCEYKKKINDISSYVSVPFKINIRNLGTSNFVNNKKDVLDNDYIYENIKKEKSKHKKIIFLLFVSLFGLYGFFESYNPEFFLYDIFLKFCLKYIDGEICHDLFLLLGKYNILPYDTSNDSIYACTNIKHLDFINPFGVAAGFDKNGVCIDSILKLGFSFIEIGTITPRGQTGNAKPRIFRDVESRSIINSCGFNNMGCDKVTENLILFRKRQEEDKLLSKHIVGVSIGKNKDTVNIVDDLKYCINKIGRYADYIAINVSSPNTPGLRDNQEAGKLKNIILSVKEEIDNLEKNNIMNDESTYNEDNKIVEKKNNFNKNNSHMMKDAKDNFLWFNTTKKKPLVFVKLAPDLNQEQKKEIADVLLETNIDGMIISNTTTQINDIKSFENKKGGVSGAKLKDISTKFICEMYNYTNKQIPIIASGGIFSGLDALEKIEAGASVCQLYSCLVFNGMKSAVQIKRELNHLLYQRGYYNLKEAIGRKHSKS
assay-comment: PfDHODH enzyme inhibitors, primary screen, biochemical, C-terminal His tag, absorbance 600 nm (AID 1175);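 also: recombinant parasite enzyme with a five histidine tag at its C terminus; test concentration not given here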
condition-notes: DCIP absorbance 600 nm, higher = more signal, called active from +8 up or from −8 down
Lab note: record just the number, no unit beside it.

Worked examples follow.
CCN1C(=O)[C@H]2[C@H]3[C@H](O)[C@H](O)CC(=NOC[C@@H](C)[C@H](OCc4ccccc4)C(C)C)[C@@H]3CC[C@H]2C1=O : -0.613
CO[C@@H]1COC(=O)CC=C[C@@H](C)[C@H](OC)COC(=O)[C@H](COCc2ccccc2)NC(=O)CC=C[C@H]1C : -0.0234
c1ccc(C2NCCc3c2[nH]c2ccccc32)cc1 (stereo not given) : -11
CN1C(=O)C2C=CC(C(O)c3ccc(Br)cc3)N(N(c3ccccc3)c3ccccc3)C2C1=O (stereo not given) : 1.02

Okay, now this molecule:
composite z-score measured on NCCCCCNC(=O)[C@@H]1C[C@@H]2C(=O)N3CCC[C@H]3C(=O)N2[C@@H]1c1cccc(OCCO)c1 = -0.801

---

assay-comment: osmotic lysis modulators in infected erythrocytes, primary screen, PSAC antagonist project, cell-based, P. falciparum Indochina, OD700, 3 h (AID 1156)
condition-notes: higher = more signal, called active from +8 up or from −8 down
# reported z-score; entries follow
Lab note: record just the number, no unit beside it.

Worked examples follow.
CC(CCN1CCc2nc(-c3ccccc3)c(-c3ccccc3)cc2C1)=NOC[C@@H](C)[C@H](OCc1ccccc1)C(C)C : 1.21
CO[C@H]1O[C@H](CO)[C@@H](OC(=O)Nc2ccc3c(c2)OCO3)[C@H](OC(=O)Nc2ccccc2-c2ccccc2)[C@@H]1OC(=O)Nc1ccccc1-c1ccccc1 : 0.433
CCc1cccc(NC(=O)O[C@H]2[C@H](OC(=O)Nc3ccc4c(c3)OCO4)[C@@H](OC(=O)Nc3ccc4c(c3)OCO4)[C@@H](OC)O[C@@H]2CO)c1 : 1.37

z-score measured on CC(=O)C[C@H](O)[C@@H](NC(=O)OC(C)(C)C)C(C)C = 1.48

z-score measured on CCOC(=O)NN=C1C[C@@H](O)[C@@H](O)[C@@H]2[C@@H]3C(=O)N(C(C)(C)C)C(=O)[C@@H]3CC[C@@H]12 = -0.548

---

# reported z-score; entries follow
assay-comment: E. coli growth modulation, two-sided OD650, primary screen, E. coli filamentation project, strain DRC41, 24 h (AID 1093);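 also: MC1000 strain lacking acrAB efflux and sulA so SOS filamentation is blocked; test concentration not given here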
condition-notes: OD650, 24 h, higher = more signal, called active from +8 up or from −8 down
Lab note: record just the number, no unit beside it.

COc1ccc([Si](C)(C)[C@H]2[C@H](CC(=O)N3CCC[C@H]3CO)O[C@@]3(C(=O)N(Cc4cccc(N5C(=O)COc6ccccc65)c4)c4ccccc43)[C@@H]2C)cc1 : 1.43
COCCCNC(=O)[C@]1(Cc2ccccc2)N=C(c2ccc(OCCCO)cc2)O[C@@H]1c1ccccc1 : -0.806
O=C1[C@H]2[C@H]3[C@H](O)[C@H](O)CC(=NOC[C@@H](O)COCc4ccco4)[C@H]3CC[C@H]2C(=O)N1C1CCCCC1 : -0.263
Cc1ccc(S(=O)(=O)N[C@@H]2COC(=O)[C@H](C)COC(=O)CC=C[C@H]2C)cc1 : -0.234
C=C(/C(=C/C[C@H](OC(C)=O)c1ccc(OCCO)cc1)c1cnc2ccccc2c1)C(C)C : 1.19
C=CC[C@]1(C(=O)NCc2ccccc2)N=C(c2ccc(OCCCO)cc2)O[C@H]1c1ccccc1 : 0.568
CCCCC(=C=CC[C@H](O)c1ccccc1OCCO)C[C@H](O)COCc1ccccc1 : 0.0754
CCc1cc2c(nc1CC)CCN(CCC(C)=NOC(C)CN1CCCc3nc(C)c(C)cc31)C2 (stereo unspecified) : 0.517

z-score measured on CCN1C(=O)[C@H]2[C@H]3[C@H](O)[C@H](O)CC(=NOCc4ccccc4)[C@H]3CC[C@H]2C1=O = 0.632

---

tested-target: Torsin-1A-interacting protein 2 (Homo sapiens) (UniProt Q8NFQ8)
Sequence (Q8NFQ8 whole entry, looked up): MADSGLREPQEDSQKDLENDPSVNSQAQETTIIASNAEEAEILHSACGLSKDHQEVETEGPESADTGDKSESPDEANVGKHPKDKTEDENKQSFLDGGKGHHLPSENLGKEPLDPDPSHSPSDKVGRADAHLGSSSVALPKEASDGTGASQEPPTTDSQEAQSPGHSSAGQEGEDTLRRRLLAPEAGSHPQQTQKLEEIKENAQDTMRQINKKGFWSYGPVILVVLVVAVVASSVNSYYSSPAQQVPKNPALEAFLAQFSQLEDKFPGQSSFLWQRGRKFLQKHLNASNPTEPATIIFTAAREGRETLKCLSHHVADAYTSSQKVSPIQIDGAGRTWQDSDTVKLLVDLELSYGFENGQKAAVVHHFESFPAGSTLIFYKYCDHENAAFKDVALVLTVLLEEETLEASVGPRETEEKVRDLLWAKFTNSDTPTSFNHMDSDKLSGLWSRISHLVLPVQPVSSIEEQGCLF
assay-comment: LULL1 binders on small-molecule microarray, primary screen, cell lysate, human LULL1 lysate, 635/667 nm fluorescence (AID 1092);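 also: probe is lysate of COS7 cells overexpressing human LULL1; score merges per-feature 667 nm fluorescence with signal-to-noise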
condition-notes: hLULL1 lysate binding, 635 nm fluorescence, higher = more signal
# reported composite z-score; entries follow
Lab note: record just the number, no unit beside it.

Worked examples follow.
CCN1C(=O)[C@H]2[C@H]3[C@H](O)[C@H](O)CC(=NOCc4ccccc4)[C@H]3CC[C@H]2C1=O : 0.21
COc1ccc(O[C@@H]2[C@H](O)CO[C@H]2C=CC#Cc2ccccc2)cc1 : 0.0101
NCCCCCNC(=O)[C@@H]1C[C@@H]2C(=O)N3CCC[C@H]3C(=O)N2[C@@H]1c1cccc(OCCO)c1 : 1.41

composite z-score measured on CC(=O)C[C@H](O)[C@@H](NC(=O)OC(C)(C)C)C(C)C = -1.18

composite z-score measured on COC(=O)CC=C[C@@H](C)[C@H](OC)c1ccccc1Br = 0.154

composite z-score measured on CO[C@H]1COC(=O)CC=C[C@H](C)[C@@H](NS(=O)(=O)c2ccc(C)cc2)COC(=O)CC=C[C@@H]1C = -0.716

composite z-score measured on COC(=O)[C@@]1(Cc2ccccc2)[C@H]2c3cc(C(=O)N4CCCC4)n(Cc4ccccn4)c3C[C@H]2CN1C(=O)c1ccccc1 = 4

composite z-score measured on COc1ccc([Si](C)(C)[C@@H]2[C@@H](CC(=O)N3CCC[C@H]3CO)O[C@]3(C(=O)N(Cc4cccc(N5CCC5=O)c4)c4ccccc43)[C@H]2C)cc1 = 2.64
